Test: Pharmacokinetics after intravenous and oral administration in rats
Format: in vivo, rat
Settings: rat, plasma, iv dosing, dose 1 mg/kg
Reported half-life is given for each of the following molecules.
Kindly format the answer as number then unit.

Guide cases for half-life, answers given:
structure: CC[C@H](Nc1ncnc(N)c1-c1ccon1)c1nc2cccc(F)c2c(=O)n1C1CC1
half-life: 40.8 min

structure: CC[C@H](Nc1ncnc(N)c1-c1nnc(C)o1)c1nc2cccc(C)c2c(=O)n1C1CC1
half-life: 63 min

structure: C[C@H](Nc1ncnc(N)c1-c1ncn(C)n1)c1nc2cccc(Cl)c2c(=O)n1C1CC1
half-life: 34.2 min

structure: CC[C@H](Nc1ncnc(N)c1-c1nnn(C)n1)c1nc2cccc(F)c2c(=O)n1-c1ccccc1
half-life: 91.2 min

structure: CC[C@H](Nc1ncnc(N)c1-c1ncn(C)n1)c1nc2cccc(Cl)c2c(=O)n1-c1ccccc1
half-life: 37.8 min

structure: CC[C@H](Nc1ncnc(N)c1-c1ncn(C)n1)c1nc2cccc(Cl)c2c(=O)n1C1CC1
half-life: 97.2 min

structure: CC[C@H](Nc1ncnc(N)c1-c1ncnn1C)c1nc2cccc(Cl)c2c(=O)n1C1CC1
half-life: 78 min

API: the following record is the query input.
Input: Field request: half-life | item: CC[C@H](Nc1ncnc(N)c1-c1ccon1)c1nc2cccc(Cl)c2c(=O)n1C1CC1
Output: 45.6 min

* * *

Assay: Compound stability in rat liver microsomes
Assay type: in vitro ADME
Conditions: pH 7.4; rat liver microsomes 0.5 mg protein/mL, compound 5 μM, NADPH 1.0 mM, 37° C.
Lab note: anything with half-life at 5 μM below 20 min is marked true (1); values at 20 min or higher are marked false (0).

compound: CC[C@H](Nc1ncnc(N)c1-c1ncn(C)n1)c1nc2cccc(Cl)c2c(=O)n1-c1ccccc1F [Ex. 45]
class_assignment: true (1)

compound: CC[C@H](Nc1ncnc(N)c1-c1ncnn1C)c1nc2cccc(Cl)c2c(=O)n1C1CC1 [Ex. 9]
class_assignment: false (0)

compound: CC[C@H](Nc1ncnc(N)c1-c1nc(C)no1)c1nc2cccc(C)c2c(=O)n1C1CC1 [Ex. 21]
class_assignment: false (0)

compound: CC[C@H](Nc1ncnc(N)c1-c1ncn(C)n1)c1nc2cccc(Cl)c2c(=O)n1C1CC1 [Ex. 53]
class_assignment: false (0)

compound: CC[C@H](Nc1ncnc(N)c1-c1ncn(C)n1)c1nc2cccc(C)c2c(=O)n1C1CC1 [Ex. 18]
class_assignment: true (1)

compound: CC(C)c1noc(-c2c(N)ncnc2N[C@@H](C)c2nc3cccc(Cl)c3c(=O)n2C2CC2)n1 [Ex. 57]
class_assignment: true (1)

Input: Please check: half-life at 5 μM for CC[C@H](Nc1ncnc(N)c1-c1noc(C)n1)c1nc2cccc(Cl)c2c(=O)n1C1CC1 [Ex. 12] , strictly under 20 min or not?
Output: false (0)

Input: Would you mind doing C[C@H](Nc1ncnc(N)c1-c1nnn(C)n1)c1nc2cccc(Cl)c2c(=O)n1C1CC1 [Ex. 42] as well?
Output: false (0)

Input: Would you mind doing CC[C@H](Nc1ncnc(N)c1-c1nc(C)no1)c1nc2cccc(Cl)c2c(=O)n1C1CC1 [Ex. 4] as well?
Output: false (0)

Input: Would you mind doing CC[C@H](Nc1ncnc(N)c1-c1nc(C)no1)c1nc2cccc(F)c2c(=O)n1-c1ccccc1 [Ex. 39] as well?
Output: true (1)

Input: Would you mind doing Cc1noc(-c2c(N)ncnc2N[C@@H](C)c2nc3cccc(F)c3c(=O)n2-c2ccccc2)n1 [Ex. 63] as well?
Output: true (1)
